B1: NEUROD6 (parent)
chain: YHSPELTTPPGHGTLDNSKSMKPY

# Variants of: B1
# assay.details: protein stability index of a GFP-peptide fusion (GPS, HEK-293T) (PSI 1-6); higher = more stable;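 further: lentivirally expressed fusions sorted by FACS into six bins by GFP to DsRed ratio, PSI derived from sequencing read proportions per bin multiplied by bin number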
# condition.label: c terminus: a fixed tail appended
Would you mind telling me the reported protein stability index of each entry?
A bare number is all that is needed in reply.

Identify measured protein stability index corresponding to `G13T`
2.41

Determine from records and report protein stability index for `L15F`
1.77

Query protein stability index for `H12L`
2.29

Answer with the recorded protein stability index of `G13Q` only.
2.11

Read off the recorded protein stability index for `N17W`
2.51

// fetch protein stability index given entry `T14Q`
1.6

Give recorded protein stability index. `S20K`
1.94

Check the records and state protein stability index for `T7E`
4.01

Consider the variant `H2D` . State its measured protein stability index.
4.75

Look up and state reported protein stability index for `S20F`
1.9

# return recorded protein stability index for input `K19F`
1.85

Write down protein stability index measured for item `P9S`
2.22

Give protein stability index for `S3A`
2.15

Note down protein stability index recorded for `D16M`
2.45

Give recorded protein stability index. `G11V`
1.96

Recall and state the measured protein stability index for `H2F` .
4.01

Quote protein stability index reported for `L6M` please.
2.33

Give a short answer stating reported protein stability index for `D16N` .
2.27

Recall and state the measured protein stability index for `Y1L` .
4.96

Tell me protein stability index reported for `Y24K`
2.23

Return the recorded protein stability index value; entry: `K19I`
2.33

Identify measured protein stability index associated with `G13N`
2.47

Name the recorded protein stability index of the item `T7F` in your answer.
2.12

Respond only with protein stability index recorded for `T8F`
2.43

Tell me protein stability index reported for `T14C`
1.9

Consider the variant `K19S` . State its measured protein stability index.
2.17

Entry `Y24M` needs its protein stability index filled in; supply it.
2.02

Input `S3F` , output reported protein stability index.
1.86

Answer with reported protein stability index of `K22I`
2.41

Using known records, supply protein stability index for `L15N`
2.46

Identify the reported protein stability index for the following entry. `T8Q`
2.52

Specify measured protein stability index for `P4V` .
2.11

Quick one: give measured protein stability index for `L6Y`
1.5

Report protein stability index for `P23T`
1.77

Answer with the recorded protein stability index of `Y1F` only.
2.7

Determine from records and report protein stability index for `P4S`
2.44

# return recorded protein stability index for input `T14F`
2.07

Consider the variant `G11F` . State its measured protein stability index.
1.73

Look up and report measured protein stability index for this entry: `K19Q`
2.24

Given `M21S` , respond with its protein stability index.
2.18

Read the entry `K19E` and write its reported protein stability index.
2.59

Return protein stability index (reported value) for this variant: `M21C`
2.42

Give the measured protein stability index for `P9G`
2.03

Quick one: give measured protein stability index for `L6A`
2.58

State its protein stability index for this variant: `K22D`
2.55

Please report protein stability index for the following variant: `H12S`
1.96
